Each item that follows carries a reported kinase still bound, per cent of control.
target: HUNK (human) (UniProt P57058); assay: KINOMEscan competition binding; conditions: compound 10.0 µM
Sequence (P57058 whole entry, looked up): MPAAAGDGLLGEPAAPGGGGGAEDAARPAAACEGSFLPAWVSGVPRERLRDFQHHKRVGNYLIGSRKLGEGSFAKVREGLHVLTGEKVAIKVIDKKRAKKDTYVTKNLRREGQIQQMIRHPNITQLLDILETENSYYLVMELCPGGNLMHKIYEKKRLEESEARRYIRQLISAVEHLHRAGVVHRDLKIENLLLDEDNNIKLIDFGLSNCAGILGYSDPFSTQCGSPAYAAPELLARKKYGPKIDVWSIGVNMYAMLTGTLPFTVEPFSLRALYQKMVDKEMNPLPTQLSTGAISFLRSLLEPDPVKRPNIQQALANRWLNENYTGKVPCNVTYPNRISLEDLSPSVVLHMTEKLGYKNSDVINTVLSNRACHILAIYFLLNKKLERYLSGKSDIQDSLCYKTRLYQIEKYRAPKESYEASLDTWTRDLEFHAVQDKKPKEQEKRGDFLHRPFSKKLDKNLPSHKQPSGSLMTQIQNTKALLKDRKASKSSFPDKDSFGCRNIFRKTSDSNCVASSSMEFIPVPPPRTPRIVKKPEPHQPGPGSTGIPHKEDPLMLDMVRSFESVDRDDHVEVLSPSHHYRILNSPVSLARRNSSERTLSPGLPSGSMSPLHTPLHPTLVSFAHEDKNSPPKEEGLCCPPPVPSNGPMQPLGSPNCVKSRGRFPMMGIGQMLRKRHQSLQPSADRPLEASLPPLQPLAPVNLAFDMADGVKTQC
Report as a plain number; the unit % is understood.

Examples with their reported kinase still bound, per cent of control follow.
1. C=CC(=O)Nc1ccc(C(=O)c2sc(Nc3ccc(N4CCN(C)CC4)cc3OC)nc2N)cc1
33
2. CC1=C(C(=O)Nc2cc3cn[nH]c3cc2F)C(c2ccc(C(F)(F)F)cc2)CC(=O)N1 (stereo not drawn)
100

Now look at this entry.
// kinase still bound, per cent of control lookup, key: N#C/C(=C1/Nc2ccccc2S1)c1ccnc(NCCc2cccnc2)n1
92
